assay: DRUGMATRIX: Phosphodiesterase PDE4 enzyme inhibition (substrate: [3H]cAMP + cAMP); conditions: u-937; Not Active = under 50% inhibition at 10 µM
Quantity measured: IC50

1. Nc1ccc(S(=O)(=O)Nc2ccnn2-c2ccccc2)cc1 [SULFAPHENAZOLE] | Not Active
2. O=C1OCCN1/N=C/c1ccc([N+](=O)[O-])o1 [FURAZOLIDONE] | Not Active
3. NCCCC[C@H](N[C@@H](CCc1ccccc1)C(=O)O)C(=O)N1CCC[C@H]1C(=O)O [LISINOPRIL ANHYDROUS] | Not Active
4. O=C1CCc2cc(OCCCCc3nnnn3C3CCCCC3)ccc2N1 [CILOSTAZOL] | Not Active

Entry N#C[C@H](O[C@@H]1O[C@H](CO[C@@H]2O[C@H](CO)[C@@H](O)[C@H](O)[C@H]2O)[C@@H](O)[C@H](O)[C@H]1O)c1ccccc1 [AMYGDALIN] , IC50 reported as Not Active

Entry CCC[C@@H]1C[C@@H](C(=O)N[C@@H]([C@H]2O[C@H](SC)[C@H](O)[C@@H](O)[C@H]2O)[C@@H](C)O)N(C)C1 [LINCOMYCIN] , IC50 reported as Not Active

Entry O=C1OC2(c3ccc(O)cc3Oc3cc(O)ccc32)c2ccccc21 [FLUORESCEIN] , IC50 reported as Not Active

Entry Oc1c(Cl)cc(Cl)cc1Sc1cc(Cl)cc(Cl)c1O [BITHIONOL] , IC50 reported as Not Active

###

target: Protein phosphatase 3 catalytic subunit alpha (Homo sapiens); design: species or system Escherichia coli; further: in other assays of this panel Not Active means under 50% inhibition at 10 µM;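 further: inhibition of calcineurin (PP2B) enzyme activity, measured with DiFMUP as the substrate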
Quantity measured: IC50

Worked set:
1) CCOC(=O)OC(C)OC1=C(C(=O)Nc2ccccn2)N(C)S(=O)(=O)c2ccccc21 (centres undefined) | Not Active
2) CN(C)CCCN1c2ccccc2CCc2ccc(Cl)cc21 | Not Active
3) NNc1ccccc1 [PHENYLHYDRAZINE] | Not Active
4) C=C(C)[C@@H]1[C@H]2OC(=O)[C@@H]1[C@]1(O)C[C@H]3O[C@]34C(=O)O[C@H]2[C@]14C | Not Active
5) Cc1ncc([N+](=O)[O-])n1CC(C)O (centres undefined) | Not Active

Entry O=c1cc(-c2ccccc2)oc2c1ccc1ccccc12 , IC50 reported as Not Active

Entry Cc1[nH]cnc1CN1CCc2c(c3ccccc3n2C)C1=O , IC50 reported as Not Active

Entry c1ccc2[nH]c(-c3cscn3)nc2c1 , IC50 reported as Not Active

Entry Nc1ccc(S(=O)(=O)Nc2ccnn2-c2ccccc2)cc1 , IC50 reported as Not Active

###

target: Cytochrome P450 2A6 (Homo sapiens, UniProt P11509); conditions: bti-tn-5b1-4; further: in other assays of this panel Not Active means under 50% inhibition at 10 µM
Sequence (P11509 whole entry): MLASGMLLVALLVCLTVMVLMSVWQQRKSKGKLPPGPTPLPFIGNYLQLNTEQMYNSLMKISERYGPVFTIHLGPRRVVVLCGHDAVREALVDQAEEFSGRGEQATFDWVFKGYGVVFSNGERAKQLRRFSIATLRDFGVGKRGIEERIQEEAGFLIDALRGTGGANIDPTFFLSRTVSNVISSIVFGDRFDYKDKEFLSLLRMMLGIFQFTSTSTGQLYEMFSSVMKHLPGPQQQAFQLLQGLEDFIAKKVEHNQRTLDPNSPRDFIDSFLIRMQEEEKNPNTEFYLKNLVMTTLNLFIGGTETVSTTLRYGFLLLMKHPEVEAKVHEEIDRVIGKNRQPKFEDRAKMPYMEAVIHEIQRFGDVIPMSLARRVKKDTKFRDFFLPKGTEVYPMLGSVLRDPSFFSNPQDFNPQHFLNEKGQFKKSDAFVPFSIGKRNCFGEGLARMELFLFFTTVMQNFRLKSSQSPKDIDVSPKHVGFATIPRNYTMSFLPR
Quantity measured: IC50

1) COc1cccc(C2(O)CCCCC2CN(C)C)c1 (stereo not drawn) | Not Active
2) C=CC[C@@H]1/C=C(\C)C[C@H](C)C[C@H](OC)[C@H]2O[C@@](O)(C(=O)C(=O)N3CCCC[C@H]3C(=O)O[C@H](/C(C)=C/[C@@H]3CC[C@@H](O)[C@H](OC)C3)[C@H](C)[C@@H](O)CC1=O)[C@H](C)C[C@@H]2OC [TACROLIMUS ANHYDROUS] | Not Active
3) C/C=C1\[C@H]2C=C(C)C[C@]1(N)c1ccc(=O)[nH]c1C2 | Not Active

###

molecular target: D(3) dopamine receptor (Homo sapiens); assay: DRUGMATRIX: Dopamine D3 radioligand binding (ligand: [3H] Spiperone); assay type: cell membranes, CHO, Membrane; details: cho; read-out: Ki
Sequence (P35462 whole entry): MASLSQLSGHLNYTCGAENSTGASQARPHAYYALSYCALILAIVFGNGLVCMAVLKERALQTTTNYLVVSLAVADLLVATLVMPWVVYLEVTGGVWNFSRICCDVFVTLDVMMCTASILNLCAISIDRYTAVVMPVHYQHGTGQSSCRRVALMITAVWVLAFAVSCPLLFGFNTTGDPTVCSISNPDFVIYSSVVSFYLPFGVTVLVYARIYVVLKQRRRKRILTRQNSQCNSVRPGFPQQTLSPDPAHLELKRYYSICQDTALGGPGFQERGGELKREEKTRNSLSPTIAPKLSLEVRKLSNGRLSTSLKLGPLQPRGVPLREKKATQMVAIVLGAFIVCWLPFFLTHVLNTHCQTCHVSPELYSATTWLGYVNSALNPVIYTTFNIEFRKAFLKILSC
Quantity measured: Ki
Field: value (include unit after the number)

Result for IVERMECTIN , tested on D(3) dopamine receptor (Homo sapiens), Ki: 0.75 µM

###

molecular target: Alpha-2A adrenergic receptor (Homo sapiens, UniProt P08913); type: cell membranes, Sf9, Membrane; conditions: sf9; further: in other assays of this panel Not Active means under 50% inhibition at 10 µM
Sequence (P08913 whole entry): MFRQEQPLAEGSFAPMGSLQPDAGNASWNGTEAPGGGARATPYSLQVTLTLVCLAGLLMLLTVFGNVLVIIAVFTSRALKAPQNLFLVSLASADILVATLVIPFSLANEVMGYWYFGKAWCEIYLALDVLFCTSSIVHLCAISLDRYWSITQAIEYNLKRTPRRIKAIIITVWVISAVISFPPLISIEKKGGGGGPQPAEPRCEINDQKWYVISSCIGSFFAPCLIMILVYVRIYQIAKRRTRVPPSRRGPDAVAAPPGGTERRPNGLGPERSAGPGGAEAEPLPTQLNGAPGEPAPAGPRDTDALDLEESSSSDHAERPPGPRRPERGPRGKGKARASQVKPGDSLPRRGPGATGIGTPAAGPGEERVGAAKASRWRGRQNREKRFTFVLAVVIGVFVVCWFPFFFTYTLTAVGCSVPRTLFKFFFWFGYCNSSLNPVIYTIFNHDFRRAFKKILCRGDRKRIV
Where a SMILES comes first, the peptide text is derived from it. Bridges are numbered along the chain shown (N, C = ends). [ ]: non-standard residue; d: D form. The star is where a group is joined. Ileψ(thiazoline)Cys = CC[C@H](C)[C@H](N)C1=N[C@H](C(=O)*)CS1; dOrn = NCCC[C@@H](N)C(=O)O
Quantity measured: IC50

1. CC1(C)[C@H]2CC[C@]1(C)C(=O)C2 [(-)-CAMPHOR] | Not Active
2. COc1ccc2c(c1)c(CC(=O)OCC(=O)O)c(C)n2C(=O)c1ccc(Cl)cc1 | Not Active
3. CN1CCC[C@H]1c1cccnc1 | Not Active
4. O=C1CCc2cc(OCCCCc3nnnn3C3CCCCC3)ccc2N1 | Not Active

Entry NC(CO)(CO)CO , IC50 reported as Not Active

Entry CC[C@H](C)[C@H](N)C1=N[C@H](C(=O)N[C@@H](CC(C)C)C(=O)N[C@H](CCC(=O)O)C(=O)N[C@H](C(=O)N[C@H]2CCCCNC(=O)[C@H](CC(N)=O)NC(=O)[C@@H](CC(=O)O)NC(=O)[C@H](Cc3cnc[nH]3)NC(=O)[C@@H](Cc3ccccc3)NC(=O)[C@H]([C@@H](C)CC)NC(=O)[C@@H](CCCN)NC2=O)[C@@H](C)CC)CS1 [BACITRACIN] ({Ileψ(thiazoline)Cys}-L[dE]IK[dOrn]I[dF]H[dD]N; lactam 4-C) , IC50 reported as Not Active

###

molecular target: UniProt P33261; details: bti-tn-5b1-4
Sequence (P33261 whole entry): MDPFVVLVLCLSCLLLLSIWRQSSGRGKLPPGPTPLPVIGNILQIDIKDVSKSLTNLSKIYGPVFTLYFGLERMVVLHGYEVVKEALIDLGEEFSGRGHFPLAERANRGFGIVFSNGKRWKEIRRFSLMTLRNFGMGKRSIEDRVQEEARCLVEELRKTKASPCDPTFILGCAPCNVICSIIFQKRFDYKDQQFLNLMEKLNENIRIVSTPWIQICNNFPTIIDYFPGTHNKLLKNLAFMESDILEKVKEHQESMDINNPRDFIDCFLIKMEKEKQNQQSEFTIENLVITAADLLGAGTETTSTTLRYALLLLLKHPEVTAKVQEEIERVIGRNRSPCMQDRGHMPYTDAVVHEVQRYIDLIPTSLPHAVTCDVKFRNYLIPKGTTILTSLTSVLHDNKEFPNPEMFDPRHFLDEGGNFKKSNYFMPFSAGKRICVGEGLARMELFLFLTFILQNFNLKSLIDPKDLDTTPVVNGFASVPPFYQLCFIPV
Quantity measured: IC50

Worked set:
1. NNC(=O)c1ccncc1 | Not Active
2. CC=CC(=O)N(CC)c1ccccc1C | Not Active
3. O=C(CCCN1CCC(O)(c2ccc(Cl)cc2)CC1)c1ccc(F)cc1 | Not Active
4. NCC[C@H](O)C(=O)N[C@@H]1C[C@H](N)[C@@H](O[C@H]2O[C@H](CN)[C@@H](O)[C@H](O)[C@H]2O)[C@H](O)[C@H]1O[C@H]1O[C@H](CO)[C@@H](O)[C@H](N)[C@H]1O | Not Active
5. CN(C)CCCC1(c2ccc(F)cc2)OCc2cc(C#N)ccc21 (stereo not drawn) | Not Active

Entry CC[N+](CC)(CC)CCOc1cccc(OCC[N+](CC)(CC)CC)c1OCC[N+](CC)(CC)CC.[I-].[I-].[I-] [GALLAMINE TRIETHIODIDE] , IC50 reported as Not Active

Entry CCc1cccc2c3c([nH]c12)C(CC)(CC(=O)O)OCC3 (stereo not drawn) , IC50 reported as Not Active

Entry NS(=O)(=O)c1cc2c(cc1Cl)NCNS2(=O)=O [HYDROCHLOROTHIAZIDE] , IC50 reported as Not Active

Entry CN1[C@@H]2CC[C@H]1C[C@@H](OC(=O)c1c[nH]c3ccccc13)C2 , IC50 reported as Not Active

Entry CN1CCN2c3ccccc3Cc3ccccc3C2C1 (stereo not drawn) , IC50 reported as Not Active

Entry CN1CCC[C@H]1c1cccnc1 , IC50 reported as Not Active

Entry CC(C)(C)NC(=O)[C@@H]1CN(Cc2cccnc2)CCN1C[C@@H](O)C[C@@H](Cc1ccccc1)C(=O)N[C@H]1c2ccccc2C[C@H]1O.O , IC50 reported as Not Active

Entry Oc1c(Cl)cc(Cl)cc1Sc1cc(Cl)cc(Cl)c1O , IC50 reported as Not Active

Entry CC1(C)S[C@@H]2[C@H](NC(=O)[C@H](NC(=O)N3CCNC3=O)c3ccccc3)C(=O)N2[C@H]1C(=O)O , IC50 reported as Not Active

Entry OCc1ccccc1 , IC50 reported as Not Active

Entry CN1C(C(=O)Nc2ccccn2)=C(O)c2ccccc2S1(=O)=O , IC50 reported as Not Active

Entry CC(C)(Oc1ccc(CCNC(=O)c2ccc(Cl)cc2)cc1)C(=O)O [BEZAFIBRATE] , IC50 reported as Not Active

Entry c1ccc2[nH]c(-c3cscn3)nc2c1 , IC50 reported as Not Active

###

test: DRUGMATRIX: GABAA, Flunitrazepam, Central radioligand binding (ligand: [3H] Flunitrazepam); assay type: cell membranes, Rattus norvegicus, Wistar, Brain, Membrane; details: Not Active = under 50% inhibition at 10 µM
Quantity measured: Ki

Worked set:
1. CC(=O)OCC(=O)[C@@]1(OC(C)=O)[C@@H](C)C[C@H]2[C@@H]3C[C@H](F)C4=CC(=O)C=C[C@]4(C)[C@@]3(F)[C@@H](O)C[C@@]21C [DIFLORASONE DIACETATE] | Not Active
2. COC1=CC(=O)C[C@@H](C)[C@]12Oc1c(Cl)c(OC)cc(OC)c1C2=O | Not Active
3. O=c1[nH]cc(F)c(=O)[nH]1 | Not Active
4. CC[N+](CC)(CC)CCOc1cccc(OCC[N+](CC)(CC)CC)c1OCC[N+](CC)(CC)CC.[I-].[I-].[I-] [GALLAMINE TRIETHIODIDE] | Not Active
5. CCC[C@@H]1C[C@@H](C(=O)N[C@@H]([C@H]2O[C@H](SC)[C@H](O)[C@@H](O)[C@H]2O)[C@@H](C)O)N(C)C1 | Not Active

Here's the next entry for you.
Entry CC(=O)S[C@@H]1CC2=CC(=O)CC[C@]2(C)[C@H]2CC[C@@]3(C)[C@@H](CC[C@@]34CCC(=O)O4)[C@H]12 , Ki reported as Not Active
